# Assayed system: full-length bcMalT (EIIB and EIIC domains) (Bacillus cereus)
# Sequence (Q63GK8 1-545): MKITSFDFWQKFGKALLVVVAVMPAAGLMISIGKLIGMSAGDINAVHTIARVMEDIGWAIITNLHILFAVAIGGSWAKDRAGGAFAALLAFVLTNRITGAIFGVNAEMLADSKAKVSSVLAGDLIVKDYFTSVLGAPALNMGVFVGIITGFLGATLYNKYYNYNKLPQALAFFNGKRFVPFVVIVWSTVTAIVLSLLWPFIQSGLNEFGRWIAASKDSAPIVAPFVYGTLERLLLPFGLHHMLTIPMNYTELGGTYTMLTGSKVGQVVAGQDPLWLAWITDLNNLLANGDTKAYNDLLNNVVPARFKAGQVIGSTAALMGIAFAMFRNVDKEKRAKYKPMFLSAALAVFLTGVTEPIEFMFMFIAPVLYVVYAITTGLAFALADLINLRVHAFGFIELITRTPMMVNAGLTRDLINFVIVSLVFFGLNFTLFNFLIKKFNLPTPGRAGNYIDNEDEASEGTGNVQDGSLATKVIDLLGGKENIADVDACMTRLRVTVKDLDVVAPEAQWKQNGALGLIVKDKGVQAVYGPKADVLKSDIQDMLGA
Endpoint name: IC50 (µM)

> print(dat)
                                   compound  endpoint.name  units.of.measure  readout.number
1  OC[C@H]1O[C@H](O[C@H]2[C@H](O)[C@@H](O)C(O)O[C@@H]2CO)[C@H](O)[C@@H](O)[C@@H]1O (stereo partly shown) [maltose]           IC50                µM             4.5

These entries and their values trace back to paper PMC4899283.
